- assay.notes: NCI Yeast Anticancer Drug Screen. Data for the wt2 strain (AID 169);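 note: 0% = growth of vehicle-treated yeast cultures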
- condition: S. cerevisiae wt2 strain growth inhibition; at 1.2 µM; stronger effect = higher value
Compounds without any hit were thinned out: in the full panel of roughly 79,000, 15% have a hit.
recorded.metric: growth inhibition (%)
Express it in %; write the number only.

In plain terms, "CC(C)N(CCCNc1c2ccccc2nc2cccc([N+](=O)[O-])c12)C(C)C" has a documented growth inhibition of 1

In plain terms, "CN(C)CC1=Nc2cccc3cccc(c23)N1" has a documented growth inhibition of -2

In plain terms, "CSC(=S)N/N=C/c1ccccc1" has a documented growth inhibition of -2

In plain terms, "CC(C)(C)c1ccc2c(c1)C(=O)c1ccccc1C2=O" has a documented growth inhibition of 1

In plain terms, O=C(O)C1CCCCC1c1c2ccc(=O)cc-2oc2cc(O)ccc12 (stereo unspecified) has a documented growth inhibition of -20

In plain terms, "CCOc1ccc(N)c(S)c1" has a documented growth inhibition of -1

In plain terms, O=C1C(/C=C/c2ccc(Cl)cc2)=NNC2N1N=C1NC(=O)C3(NN12)c1ccccc1-c1ccccc13 (stereo unspecified) has a documented growth inhibition of -2

In plain terms, "C/C(=N\Sc1ccccc1)c1ccccc1O" has a documented growth inhibition of 1

In plain terms, "COc1ccc(/C=C2\SC(=S)N(/C=C3\C(=O)N(c4ccccc4)N=C3C)C2=O)cc1OC" has a documented growth inhibition of -2

In plain terms, "O=[N+]([O-])c1cn[n+]([O-])c2ccccc12" has a documented growth inhibition of -18

In plain terms, NC(CCCCCCCCCCCCC(N)C(=O)c1ccccc1)C(=O)c1ccccc1 (stereo unspecified) has a documented growth inhibition of -4

---

- assay.notes: NCI Yeast Anticancer Drug Screen. Data for the cln2 rad14 strain (AID 165);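 note: 0% = growth equal to vehicle treated cultures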
- condition: S. cerevisiae cln2 rad14 strain, at 50.0 µM, stronger effect = higher value
- Protocol: Growth inhibition of yeast strains with defined genetic alterations is measured as a screen for potential anti-cancer activity. Selected strains with alterations in DNA damage repair or cell cycle control were exposed to compounds and growth inhibition was measured relative to vehicle treated controls. The strain used in this assay is cln2 rad14
About 79,000 compounds went through this panel and 15% of them were active in at least one assay; those are over-represented in the sample as a whole.
Use 90% as the dividing line for growth inhibition, with the line itself on the Met side and lower values as Not met.

Example results:
Cc1ccnc2c(O)cccc12 : Met
Cc1cccc2c1C1c3c(C)cccc3C(CC(=O)O)CC1CC2 (stereo not given) : Met
CCN(CC)C(=S)SC(=S)N(CC)CC : Not met
C/C1=C/C2OC(=O)C3(C)C2C(CC2(C)OC1=CC2=O)OC3(O)C(C)C (stereo not given) : Not met
Cc1ccc([N+](=O)[O-])c2c(NCCC[N+](C)(C)[O-])c3ccccc3nc12 : Not met

Quick check: does [N-]=[N+]=NC1(c2ccccc2)C(=O)Nc2ccccc2C1=O (stereo not given) have growth inhibition greater than or equal to 90%?
Not met

Quick check: does "CC(C)N(CCCNc1c2ccccc2nc2cccc([N+](=O)[O-])c12)C(C)C" have growth inhibition greater than or equal to 90%?
Met

Quick check: does "C[n+]1c(-c2ccc(/C=N/NC(=O)c3ccc(C(=O)N/N=C/c4ccc(-c5cn6ccccc6[n+]5C)cc4)cc3)cc2)cn2ccccc21" have growth inhibition greater than or equal to 90%?
Not met

Quick check: does CCCCCCCSCC1C(=O)C23C(O)C1CCC2C12COC3(O)C(O)C1C(C)(C)CCC2O (stereo not given) have growth inhibition greater than or equal to 90%?
Not met

---

- assay.notes: NCI Yeast Anticancer Drug Screen. Data for the rad18 strain (AID 177)
- condition: S. cerevisiae rad18 mutant growth inhibition; at 33.0 µM
The panel holds about 79,000 compounds, 15% with a hit somewhere; the sample as a whole holds those more often. The source made the active and inactive calls. Rule as the data show it: active = growth inhibition above about 70%; inactive = the rest.
Form entry, call: pick from active, inactive

CCOC(=O)CC1(C)/C(=N\Nc2ccc([N+](=O)[O-])cc2[N+](=O)[O-])CCC2C1CCC1(C)C(C(C)CCCC(C)C)CCC21 (stereo unspecified) : inactive

Per the assay record, what outcome was assigned to "Clc1nc(Cl)nc(Nc2cccc3ccccc23)n1" ?
active

Per the assay record, what outcome was assigned to "Oc1ccc(C2(c3ccc(O)cc3)CCCC2)cc1" ?
active

Per the assay record, what outcome was assigned to "Cc1ccc(Nc2n[nH]c(=S)s2)c(C)c1" ?
inactive

---

- assay.notes: NCI Yeast Anticancer Drug Screen. Data for the bub3 strain (AID 167)
- condition: S. cerevisiae bub3 mutant strain, at 50.0 µM, stronger effect = higher value
The panel holds about 79,000 compounds, 15% with a hit somewhere; the sample as a whole holds those more often.
Use 80% as the dividing line for growth inhibition, with the line itself on the 1 side and lower values as 0.

Example results:
O=C(NCCNCCNC(=O)c1cc(-c2ccccc2)nc2ccccc12)c1cc(-c2ccccc2)nc2ccccc12 : 1
CCOC(=O)CC1(C)/C(=N\Nc2ccc([N+](=O)[O-])cc2[N+](=O)[O-])CCC2C1CCC1(C)C(C(C)CCCC(C)C)CCC21 (stereo not drawn) : 0
CC(C)=CCc1c2c(c(O)c3c(=O)c(-c4ccc(O)c(O)c4)coc13)C=CC(C)(C)O2 : 1

Quick check: does O=C(O)c1cc2c(cc1S(=O)(=O)O)C1C(C3C2C2(Cl)C(Cl)=C(Cl)C3(Cl)C2(Cl)Cl)C2(Cl)C(Cl)=C(Cl)C1(Cl)C2(Cl)Cl (stereo not drawn) have growth inhibition greater than or equal to 80%?
1

Quick check: does "CCOC(=O)/C(=C\c1cccc(C)c1)C(C)=O" have growth inhibition greater than or equal to 80%?
1

Quick check: does OC1(c2ccccc2)C2CC=CC2C1(c1ccccc1)c1ccccc1 (stereo not drawn) have growth inhibition greater than or equal to 80%?
0

Quick check: does COc1ccc2c3c1OC(C)C31CC(=O)CCC1CC2 (stereo not drawn) have growth inhibition greater than or equal to 80%?
0

---

- assay.notes: NCI Yeast Anticancer Drug Screen. Data for the sgs1 strain (AID 173);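 note: 0% = growth of vehicle-only control cultures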
- condition: S. cerevisiae sgs1 mutant, at 100.0 µM, stronger effect = higher value
Compounds without any hit were thinned out: in the full panel of roughly 79,000, 15% have a hit.
Overview of reported growth inhibition across a group of molecules:
Express it in %; write the number only.

The examples below pair each entry with its known result.
CC(C)(C)c1ccc2c(c1)C(=O)c1ccccc1C2=O : 17
O=C(Cc1ccccc1)NNc1nc(NNC(=O)c2ccncc2)nc(Nc2ccc(Cl)cc2)n1 : 4
CSC(=S)N/N=C/c1ccccc1 : 55
CC(C)OP(=O)(OC(C)C)/C(Cl)=N/Nc1ccc([N+](=O)[O-])cc1 : 98
O=[N+]([O-])c1ccc2[nH]c3c(-c4ccccc4)nccc3c2c1 : 96
CCC(/C=C/c1ccccc1)=N\Nc1ccc(Cl)c(Cl)c1 : 95

Next molecule, please.
In plain terms, "O=C(O)c1ccc2cc(Cl)c3ccccc3c2c1" has a documented growth inhibition of 68

---

- assay.notes: NCI Yeast Anticancer Drug Screen. Data for the bub3 strain (AID 167)
- condition: S. cerevisiae bub3 mutant strain, at 11.0 µM
About 79,000 compounds went through this panel and 15% of them were active in at least one assay; those are over-represented in the sample as a whole. Activity calls are given as the source filed them. Rule as the data show it: active = growth inhibition above about 70%; inactive = the rest.
Form entry, call: pick from active, inactive

C/C(=N/NC(=S)Nc1ccccc1C)c1ccccn1 : inactive
Cc1cc(C)c2[s+]snc2c1 : inactive

Per the assay record, what outcome was assigned to "C/C(=N\Sc1ccccc1)c1ccccc1O" ?
inactive

Per the assay record, what outcome was assigned to "Nc1ccc(N=Nc2ccc(-c3ccc(O)cc3)cc2)c2ccc(S(=O)(=O)O)cc12" ?
inactive

Per the assay record, what outcome was assigned to "CC(C)NCCCNc1c2ccccc2nc2cccc([N+](=O)[O-])c12" ?
active

Per the assay record, what outcome was assigned to CCC(=O)C1=C(O)c2cc(OC)ccc2CC1C(=O)OC (configuration not stated) ?
inactive

Per the assay record, what outcome was assigned to "CC(=O)/C=C/c1cccc([N+](=O)[O-])c1" ?
inactive

Per the assay record, what outcome was assigned to "O=C1C(=O)c2cccc([N+](=O)[O-])c2-c2ccccc21" ?
inactive

---

- assay.notes: NCI Yeast Anticancer Drug Screen. Data for the mlh1 strain (AID 171);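 note: 0% = growth of vehicle-treated control cultures of the same strain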
- condition: S. cerevisiae mlh1 strain growth inhibition; at 1.2 µM
Compounds without any hit were thinned out: in the full panel of roughly 79,000, 15% have a hit. Activity calls are given as the source filed them. No stated cut-off is given here; in the data, active means growth inhibition above about 70%; inactive means the rest.
Form entry, call: pick from true (1) for active, false (0) for inactive

Example results:
O=S1(=O)CCC2=CC(C(F)(F)F)=CC(C(F)(F)F)=CN21 : false (0)
CCN(CC)CCNc1ccc2nc(C)n3c4ccc(O)cc4c(=O)c1c23 : false (0)
O=C(O)C1CCCCC1c1c2ccc(=O)cc-2oc2cc(O)ccc12 (centres undefined) : false (0)
CCC[CH2][Sn]([CH2]CCC)([CH2]CCC)/[C](=C/[Si](C)(C)c1ccccc1)c1ccc2c(c1)OCO2 : false (0)
CC(C)=CCC/C(C)=C/CN1C(=O)C=CC1=O : false (0)
Cc1cccc2c1C1c3c(C)cccc3C(CC(=O)O)CC1CC2 (centres undefined) : false (0)
Cc1ccnc2c(O)cccc12 : false (0)
CCN(CC)C(=S)SC(=S)N(CC)CC : false (0)

Per the assay record, what outcome was assigned to "COc1ccc2cc3c4cc5c(cc4cc[n+]3cc2c1OC)OCO5" ?
false (0)

Per the assay record, what outcome was assigned to "C=COC(=O)N[C@H]1CCc2cc(OC)c(OC)c(OC)c2-c2ccc(SC)c(=O)cc21" ?
false (0)

Per the assay record, what outcome was assigned to "O=c1cccccc1[O-].O=c1cccccc1[O-].O=c1cccccc1[O-].[Eu+3]" ?
false (0)
